Test: Volume of distribution at steady state in Beagle dog at 0.5 mg/kg, iv and measured upto 24 hrs by LC-MS/MS analysis
Assay type: ADME, organism-based, Canis lupus familiaris
Settings: in vivo, read-out: Vdss
measurement name: Vd (L/kg)
Numeric answer only, unit L/kg assumed.

Query :: Form field: reported Vd of COc1ccc2nc3c(nc2c1)O[C@@H]1CC2C(=O)N[C@]4(C(=O)NS(=O)(=O)C5(C)CC5)C[C@@H]4/C=C/CCCCC[C@H](NC(=O)O[C@@H]4CCC[C@H]4CCCCC3)C(=O)N2C1 (some centres not stated)
Result :: 0.5

Query :: Form field: reported Vd of C=C[C@@H]1C[C@]1(NC(=O)[C@@H]1C[C@@H]2CN1C(=O)[C@H](C1CCCC1)NC(=O)O[C@@H]1CCC[C@H]1CCCCCn1c(nc3cc(OC)ccc3c1=O)O2)C(=O)NS(=O)(=O)C1(C)CC1 [MK-2748]
Result :: 0.12

---

Provide the reported IC50 of each item.
Target: Replicase polyprotein 1ab (Severe acute respiratory syndrome coronavirus 2, UniProt P0DTD1)
Numeric answer only, unit nM assumed.

Query :: Form field: reported IC50 of COc1ccc2c(O[C@@H]3C[C@H]4C(=O)N[C@]5(P(=O)(O)Cc6ccccc6)C[C@H]5CCCCCCC[C@H](NC(=O)OC5CCCC5)C(=O)N4C3)cc(-c3csc(NC(C)C)n3)nc2c1
Result :: 6

Query :: Form field: reported IC50 of C=C[C@@H]1C[C@]1(NC(=O)[C@@H]1C[C@@H](Oc2cc(-c3csc(NC(C)C)n3)nc3c(C(C)C)c(OC)ccc23)CN1C(=O)[C@@H](NC(=O)OC1CCCC1)C(C)(C)C)C(=O)O
Result :: 14

Query :: Form field: reported IC50 of C=C[C@@H]1C[C@]1(NC(=O)[C@@H]1C[C@@H](Oc2cc(-c3csc(NC(C)C)n3)nc3cc(OC)ccc23)CN1C(=O)[C@@H](NC(=O)OC1CCCC1)C(C)(C)C)P(=O)(O)O
Result :: 0.9

Query :: Form field: reported IC50 of C=C[C@@H]1C[C@]1(NC(=O)[C@@H]1C[C@@H](Oc2cc(-c3csc(C(=O)CC)n3)nc3c(C)c(OC)ccc23)CN1C(=O)[C@@H](NC(=O)OC1CCCC1)C(C)(C)C)C(=O)O
Result :: 10

---

Assay: AUC in Beagle dog at 2 mg/kg, po
Assay type: ADME, organism-based, Canis lupus familiaris
Settings: in vivo
measurement name: AUC (µM·h)
Numeric answer only, unit µM·h assumed.

Query :: Form field: reported AUC of CCC[C@H](NC(=O)[C@@H]1[C@H]2CCC[C@H]2CN1C(=O)[C@@H](NC(=O)[C@@H](NC(=O)c1cnccn1)C1CCCCC1)C(C)(C)C)C(=O)C(=O)NC1CC1
Result :: 40.7

---

Provide the reported pIC50 of each item.
Target: Non-structural protein 4b (Hepacivirus hominis, UniProt F5B4I0)
Sequence (F5B4I0 whole entry): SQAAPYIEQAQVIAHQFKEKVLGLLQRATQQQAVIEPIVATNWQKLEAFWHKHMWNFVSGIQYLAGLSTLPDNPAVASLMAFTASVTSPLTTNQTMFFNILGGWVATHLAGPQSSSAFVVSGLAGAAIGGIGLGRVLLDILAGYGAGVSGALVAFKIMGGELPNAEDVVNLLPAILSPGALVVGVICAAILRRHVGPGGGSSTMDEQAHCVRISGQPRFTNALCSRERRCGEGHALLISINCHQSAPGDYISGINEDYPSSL
Assay: Inhibition of Hepatitis C virus genotype 1a NS4B
Please report pIC50 as the negative decimal logarithm of the molar concentration, giving only the number.

Query :: Form field: reported pIC50 of C=C[C@@H]1C[C@]1(NC(=O)[C@@H]1C[C@@H](Oc2cc(-c3ccccc3)nc3cc(OC)ccc23)CN1C(=O)[C@@H](CC(=O)N1CCCCC1)C(C)(C)C)C(=O)NS(=O)(=O)C1CC1 [SOVAPREVIR]
Result :: 7.96

Query :: Form field: reported pIC50 of CC(C)(C)[C@@H]1NC(=O)O[C@@H]2CCC[C@H]2OC/C=C/C(F)(F)c2nc3ccccc3nc2O[C@@H]2C[C@@H](C(=O)N[C@]3(C(=O)NS(=O)(=O)C4(C)CC4)C[C@H]3C(F)F)N(C2)C1=O
Result :: 8.36

Query :: Form field: reported pIC50 of C=C[C@@H]1C[C@]1(NC(=O)[C@@H]1C[C@@H](Oc2cc(-c3ccccc3)nc3cc(OC)ccc23)CN1C(=O)[C@@H](NC(=O)OC(C)(C)C)C(C)(C)C)C(=O)NS(=O)(=O)C1CC1
Result :: 9.00

---

Assay: Inhibition of Hepatitis C virus NS3 protease
Design: species or system Hepacivirus hominis
Where a SMILES comes first, the peptide text is derived from it. [ ]: non-standard residue; d: D form.
measurement name: IC50 (µM)
Numeric answer only, unit µM assumed.

Query :: Form field: reported IC50 of COc1ccc2c(O[C@@H]3C[C@H]4C(=O)N[C@]5(C(=O)O)C[C@H]5/C=C\CCCCC[C@H](NC(=O)OC5CCCC5)C(=O)N4C3)cc(-c3csc(NC(C)C)n3)nc2c1
Result :: 3

Query :: Form field: reported IC50 of C=C[C@@H]1C[C@]1(NC(=O)[C@@H]1C[C@@H](Oc2cc(-c3ccccc3)nc3cc(OC)ccc23)CN1C(=O)[C@H](CCCCC)NC(=O)OC(C)(C)C)C(=O)O
Result :: 0.4

Query :: Form field: reported IC50 of COc1ccc2c(O[C@@H]3C[C@H]4C(=O)N[C@]5(C(=O)O)C[C@H]5/C=C/CCCCC[C@H](NC(=O)OC(C)(C)C)C(=O)N4C3)cc(-c3ccccc3)nc2c1
Result :: 0.011

Query :: Form field: reported IC50 of CCC[C@H](NC(=O)[C@@H]1C[C@@H](OCc2cccc3ccccc23)CN1C(=O)[C@@H](NC(=O)[C@@H](NC(=O)[C@@H](CC(=O)O)NC(=O)[C@H](CC(=O)O)NC(C)=O)C1CCCCC1)C(C)C)C(=O)O
Result :: 0.027

Query :: Form field: reported IC50 of CC[C@H](C)[C@H](NC(=O)[C@@H](CC(=O)O)NC(=O)[C@H](CC(=O)O)NC(C)=O)C(=O)N[C@H](C(=O)N1CCC[C@H]1C(=O)N[C@@H](CS)C(=O)O)C(C)C (Ac-D[dD]IVPC-OH)
Result :: 4

---

Experiment: Oral bioavailability in Sprague-Dawley rat
Assay type: ADME, organism-based
Details: in vivo
Provide the reported bioavailability of each item.
Number first, unit second.

Query :: Form field: reported bioavailability of C=C[C@@H]1C[C@]1(NC(=O)[C@@H]1C[C@@H]2CN1C(=O)[C@H](C1CCCC1)NC(=O)O[C@@H]1CCC[C@H]1CCCCCn1c(nc3cc(OC)ccc3c1=O)O2)C(=O)NS(=O)(=O)C1(C)CC1 [MK-2748]
Result :: 40%

Query :: Form field: reported bioavailability of CCC[C@H](NC(=O)[C@@H]1[C@H]2CCC[C@H]2CN1C(=O)[C@@H](NC(=O)[C@@H](NC(=O)c1cnccn1)C1CCCCC1)C(C)(C)C)C(=O)C(=O)NC1CC1
Result :: 25%

Query :: Form field: reported bioavailability of CC(C)(C)[C@@H]1NC(=O)O[C@@H]2CCC[C@H]2OC/C=C/C(F)(F)c2nc3ccccc3nc2O[C@@H]2C[C@@H](C(=O)N[C@]3(C(=O)NS(=O)(=O)C4(C)CC4)C[C@H]3C(F)F)N(C2)C1=O
Result :: 90%

Query :: Form field: reported bioavailability of COc1ccc2nc3c(nc2c1)O[C@@H]1CC2C(=O)N[C@]4(C(=O)NS(=O)(=O)C5(C)CC5)C[C@@H]4/C=C/CCCCC[C@H](NC(=O)O[C@@H]4CCC[C@H]4CCCCC3)C(=O)N2C1 (some centres undefined)
Result :: 8%

---

Assay: Half life in Sprague-Dawley rat at 5 mg/kg, po by LC-MS/MS analysis
Type: ADME, organism-based
Details: in vivo
measurement name: half-life (h)
Numeric answer only, unit h assumed.

Query :: Form field: reported half-life of CC(C)(C)[C@@H]1NC(=O)O[C@@H]2CCC[C@H]2OC/C=C/C(F)(F)c2nc3ccccc3nc2O[C@@H]2C[C@@H](C(=O)N[C@]3(C(=O)NS(=O)(=O)C4(C)CC4)C[C@H]3C(F)F)N(C2)C1=O
Result :: 2.8

Query :: Form field: reported half-life of C=C[C@@H]1C[C@]1(NC(=O)[C@@H]1C[C@@H]2CN1C(=O)[C@H](C1CCCC1)NC(=O)O[C@@H]1CCC[C@H]1CCCCCn1c(nc3cc(OC)ccc3c1=O)O2)C(=O)NS(=O)(=O)C1(C)CC1
Result :: 1.9

Query :: Form field: reported half-life of Cc1cnc(C(=O)N[C@H]2CCCCC/C=C\[C@@H]3C[C@@]3(C(=O)NS(=O)(=O)C3CC3)NC(=O)[C@@H]3C[C@@H](Oc4nc5ccccc5c5ccccc45)CN3C2=O)cn1
Result :: 0.4

Query :: Form field: reported half-life of COc1ccc2nc3c(nc2c1)O[C@@H]1CC2C(=O)N[C@]4(C(=O)NS(=O)(=O)C5(C)CC5)C[C@@H]4/C=C/CCCCC[C@H](NC(=O)O[C@@H]4CCC[C@H]4CCCCC3)C(=O)N2C1 (stereo partly specified)
Result :: 3.8

Query :: Form field: reported half-life of C=C[C@@H]1C[C@]1(NC(=O)[C@@H]1C[C@@H](Oc2cc(-c3csc(NC(=O)C(C)C)n3)nc3c(Br)c(OC)ccc23)CN1C(=O)[C@@H](NC(=O)OC1CCCC1)C(C)(C)C)C(=O)O
Result :: 1.2

The values you see were collected from ChEMBL document CHEMBL5537165.
